Molecular target: Sphingosine 1-phosphate receptor 3 (Homo sapiens)
Sequence (Q99500 whole entry): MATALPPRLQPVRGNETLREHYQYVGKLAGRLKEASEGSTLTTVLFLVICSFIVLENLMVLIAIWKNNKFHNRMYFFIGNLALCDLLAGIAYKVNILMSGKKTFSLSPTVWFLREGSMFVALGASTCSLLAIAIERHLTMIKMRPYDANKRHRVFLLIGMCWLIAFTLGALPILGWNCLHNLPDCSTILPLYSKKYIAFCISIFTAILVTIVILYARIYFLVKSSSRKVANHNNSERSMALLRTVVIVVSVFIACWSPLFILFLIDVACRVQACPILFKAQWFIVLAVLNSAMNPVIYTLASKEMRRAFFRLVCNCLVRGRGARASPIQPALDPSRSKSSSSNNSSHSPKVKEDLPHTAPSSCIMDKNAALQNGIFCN
Experiment: Agonist activity at human S1P3 receptor expressed in CHO-K1 cells co-expressing Gq/i5 G-protein assessed as calcium mobilization by FLIPR assay
pEC50: −log10 of the molar value.
measure name: pEC50

>>> df
                     structure_smiles_string  endpoint_result
 0  Cn1nc(C(=O)Nc2ccc(-c3ccccc3)c(C(F)(F)F)c2)c(=O)c2ccccc21           < 5.60
 1  Cn1cc(C(=O)Nc2ccc(-c3ccccn3)c(C(F)(F)F)c2)c(=O)c2ccccc21           < 5.60
 2  Cn1cc(C(=O)Nc2ccc(-c3cccnc3)c(C(F)(F)F)c2)c(=O)c2ccccc21           < 5.60
 3  Cn1cc(C(=O)Nc2ccc(-c3ccccc3)c(C(F)(F)F)n2)c(=O)c2cnccc21           < 5.60
 4  Cn1cc(C(=O)Nc2ccc(-c3ccccn3)c(C(F)(F)F)c2)c(=O)c2cnccc21           < 5.60
 5  Cn1cc(C(=O)Nc2ccc(-c3ccncc3)c(C(F)(F)F)c2)c(=O)c2ccccc21           < 5.60
 6  COc1ccncc1C(=O)NC(=O)Nc1ccc(-c2ccccc2)c(C(F)(F)F)c1           < 4.60
 7  Cn1cc(C(=O)Nc2ccc(-c3ccccc3)c(C(F)(F)F)c2)c(=O)c2ccccc21             5.82
 8  Cn1cc(C(=O)Nc2ccc(-c3ccccn3)c(C(F)(F)F)n2)c(=O)c2cnccc21           < 5.60
 9  Cn1cc(C(=O)Nc2ccc(-c3ccccc3)c(C(F)(F)F)n2)c(=O)c2ccccc21           < 5.60
10  Cn1cc(C(=O)Nc2ccc(-c3ccccc3)c(C(F)(F)F)c2)c(=O)c2cccnc21           < 5.60
11  FC(F)(F)c1cccc(-c2noc(-c3cc(-c4ccccc4)c(C(F)(F)F)s3)n2)c1           < 4.60
